Entry source: PubChem BioAssay (NCI)

Tested on: HCC-2998 colon
Test: NCI tumour cell line growth inhibition, 48 h

compound	comparisonSymbol	TGI (µM)
CC(OC1CC(=O)CC2C(=O)C=CC(=O)C12)c1ccccc1 (configuration not stated)	=	29.7
COc1cc(OC)cc(-c2ccc(-c3ccc(C(=N)N)s3)s2)c1	=	2.58
COc1cc2c(cc1O)[C@H](C)C(c1ccccc1OC)O2 (some centres not stated)	=	90
N#CC(c1ccccc1)N(CCc1ccccc1)C(=O)c1ccccc1 (configuration not stated)	>	100
CC1=C(C(=O)NNC(=O)C(N)=O)CC(C(=O)NNC(=O)C(N)=O)=C(C)N1	>	100
CCOC(=O)CCSS(=O)(=O)C(F)(F)F	>	100
COC1/C=C\OC2(C)Oc3c(C)c(O)c4c(O)c(c(/C=N\OCCCc5ccccc5)c(O)c4c3C2=O)NC(=O)/C(C)=C\C=C/C(C)C(O)C(C)C(O)C(C)C(OC(C)=O)C1C (configuration not stated)	=	25.6

###

Test system: RXF 393 renal
Assay: NCI tumour cell line growth inhibition, 48 h; in the data active means GI50 below about 0.43 µM; inactive means the rest
Outcome codes: active, inactive

chemSmiles	className
NC(=O)c1ccc2nc(-c3ccc(C4(N)CCC4)cc3)c(-c3ccccc3)n2n1	active
COc1ccc(-c2nn(-c3ccc(NC(=O)Nc4ccc(Cl)c(Cl)c4)cc3)cc2-c2ccncc2)cc1Cl	inactive
Cc1cc(C(=O)N[C@@H](CCC(=O)O)C(=O)O)sc1CC[C@@H]1CNc2nc(N)[nH]c(=O)c2C1	active

###

System: SR leukemia
Assay: NCI tumour cell line growth inhibition, 48 h
quantity: TGI

compound	recordedMeasurement
Cc1ccc(/C=C/C(=O)C(C)C)cc1	98.4 µM
COC(=O)c1ccc(/C=C2\Cc3ccccc3C2=O)cc1	> 100 µM
OC(COc1cccc2ccccc12)CN1CCN(c2ccc(Cl)cc2)CC1 (centres undefined)	> 100 µM
N#CC(c1ccccc1)N(CCc1ccccc1)C(=O)c1ccccc1 (centres undefined)	> 100 µM

###

Tested on: SW-620 colon
Experiment: NCI tumour cell line growth inhibition, 48 h
Reported TGI values for the following molecules.

molecule	TGI
CS(=O)(=O)N1CC(CCl)c2ccc(NCCN)cc21 (configuration not stated)	> 100 µM
O=C1NC2(CCCC2)/C(=N\O)C12CCCC2	> 100 µM
CC(N)(Cc1c[nH]c2ccccc12)C(=O)O (configuration not stated)	> 2500 µM
Cc1ccc(S(=O)(=O)NC(=O)NC(C(=O)O)C(C)O)cc1 (configuration not stated)	> 100 µM
COCOc1cc(OC)c(Br)cc1C/C(=N/O)C(=O)OC	> 100 µM
C=C(CN(C)C)C(=O)c1ccc(C)cc1C	13.5 µM
CN(C)Cc1cc(N=Nc2ccccc2Cl)ccc1O	28 µM

###

System: ACHN renal
Experiment: NCI tumour cell line growth inhibition, 48 h
Reported TGI values for the following compounds.

compound	TGI
CCOC(=O)NC(Nc1ccc(F)c(F)c1)(C(=O)OCC)C(F)(F)F (configuration not stated)	> 100 µM
[C-]#[O+].[C-]#[O+].[Ir].[O-]c1ccc2ccccc2c1N=Nc1ccccc1	13.8 µM
CC(N)(Cc1c[nH]c2ccccc12)C(=O)O (configuration not stated)	> 2500 µM
CCC(C(=O)c1cccs1)C(O)(C(F)(F)F)C(F)(F)F (configuration not stated)	> 100 µM
CCCCC1C(=O)N(c2ccc(S(=O)(=O)Nc3ccccn3)cc2)N(c2ccc(O)c(C(=O)O)c2)C1=O (configuration not stated)	> 100 µM
COc1cc([N+](=O)[O-])c(S(=O)(=O)O)cc1N	> 100 µM
COC(=O)/C(=N\N)C(C(=O)C(=O)Nc1cccc([N+](=O)[O-])c1)c1nc2ccc(C(=O)c3ccccc3)cc2[nH]c1=O (configuration not stated)	> 100 µM
